Listed here: items and their measured IC50.
biological target: HPK1 (Homo sapiens); assay: HPK1 biochemical assay (ADP-GLO Kinase Assay); details: B*: testing performed in a first testing facility; read-out: HPK1 IC50 (nM) Relative, B*
Sequence (Q92918 whole entry): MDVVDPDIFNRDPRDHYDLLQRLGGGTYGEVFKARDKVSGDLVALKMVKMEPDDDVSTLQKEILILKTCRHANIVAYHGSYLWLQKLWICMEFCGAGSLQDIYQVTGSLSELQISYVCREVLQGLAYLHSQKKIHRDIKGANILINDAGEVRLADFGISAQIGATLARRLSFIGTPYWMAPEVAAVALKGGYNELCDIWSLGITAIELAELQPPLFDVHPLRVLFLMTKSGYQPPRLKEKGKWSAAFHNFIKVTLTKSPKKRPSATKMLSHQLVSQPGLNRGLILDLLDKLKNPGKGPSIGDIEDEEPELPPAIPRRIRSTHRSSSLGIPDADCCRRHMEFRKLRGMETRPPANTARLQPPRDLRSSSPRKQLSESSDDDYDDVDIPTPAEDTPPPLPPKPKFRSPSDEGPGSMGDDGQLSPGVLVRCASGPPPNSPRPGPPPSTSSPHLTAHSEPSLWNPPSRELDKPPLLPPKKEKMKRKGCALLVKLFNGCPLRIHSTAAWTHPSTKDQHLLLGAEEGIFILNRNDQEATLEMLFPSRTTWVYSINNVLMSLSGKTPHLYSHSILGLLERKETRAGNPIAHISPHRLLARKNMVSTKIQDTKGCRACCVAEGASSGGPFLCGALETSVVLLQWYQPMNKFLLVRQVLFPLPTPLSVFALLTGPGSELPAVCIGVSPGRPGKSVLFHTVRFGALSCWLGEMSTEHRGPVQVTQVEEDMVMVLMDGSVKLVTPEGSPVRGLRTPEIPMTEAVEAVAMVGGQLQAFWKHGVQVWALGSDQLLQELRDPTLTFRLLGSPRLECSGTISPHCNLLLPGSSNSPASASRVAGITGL

The cases that follow already have their IC50 on record.
>>> df
                                   compound  value_reported
0  COc1cc2c(cc1Nc1ncc(Cl)c(-n3cc(C(C(=O)O)C(F)(F)F)c4ccccc43)n1)CN(C)CC2 (stereo not drawn)        ≤ 100 nM
1  CCc1c[nH]c2ncc(-c3ccc(CO)c(P(C)(C)=O)c3)cc12   100 to 500 nM
2  COc1cc2c(cc1Nc1ncc(Cl)c(-n3ncc4ccccc43)n1)CN(C)CC2        ≤ 100 nM
3  COc1cc2c(cc1Nc1ncc(Cl)c(-c3nn(CC(=O)O)c4ccccc34)n1)CN(C)CC2        ≤ 100 nM
4  COc1cc2c(cc1Nc1ncc(Cl)c(N3CC(C(=O)O)C4(CCCC4)C3)n1)CN(C)CC2 (stereo not drawn)        ≤ 100 nM

// lookup IC50 for COc1cc2c(cc1Nc1ncc(Cl)c(N3CC(C)(C)c4ccccc43)n1)CN(C)CC2
≤ 100 nM

Thanks! And COc1cc2c(cc1Nc1ncc(Cl)c(-n3cc(CC(=O)O)c4cc(F)c(F)cc43)n1)CN(C)CC2 ?
≤ 100 nM

###

target: JAK3 (Homo sapiens); construct: purchased Thermo fisher PV3855; experiment: JAK3 biochemical assay (ADP-GLO Kinase Assay); conditions: ratio of JAK3 IC50 to HPK1 IC50; first testing facility
Sequence (P52333 781-1124 limits assumed): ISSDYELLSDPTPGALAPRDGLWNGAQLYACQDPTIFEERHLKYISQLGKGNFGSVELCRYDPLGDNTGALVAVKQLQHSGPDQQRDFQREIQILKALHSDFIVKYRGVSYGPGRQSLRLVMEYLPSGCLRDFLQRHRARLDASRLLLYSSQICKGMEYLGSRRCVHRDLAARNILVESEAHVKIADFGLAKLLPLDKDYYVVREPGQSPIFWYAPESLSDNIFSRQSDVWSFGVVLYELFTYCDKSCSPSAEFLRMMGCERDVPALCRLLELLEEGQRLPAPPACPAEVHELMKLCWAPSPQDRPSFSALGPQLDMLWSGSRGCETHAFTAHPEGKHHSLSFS
Quantity Measured: JAKs/HPK1 IC50 Ratio, B*

                                   compound         quantity_measured  value_reported
0  COC(=O)C1CN(c2nc(Nc3cc4c(cc3OC)CCN(C)C4)ncc2C(F)F)c2ccccc21 (stereo not drawn)  JAKs/HPK1 IC50 Ratio, B*           >3309

// lookup JAKs/HPK1 IC50 Ratio, B* for COc1cc2c(cc1Nc1ncc(Cl)c(N3CCOc4ccccc43)n1)CN(C)CC2
>118

Thanks! And COc1cc2c(cc1Nc1ncc(Cl)c(-n3cc(CC(=O)OC(C)C)c4ccccc43)n1)CN(C)CC2 ?
>243

###

target: JAK3 (Homo sapiens); construct: purchased Thermo fisher PV3855; assay: JAK3 biochemical assay (ADP-GLO Kinase Assay); details: ratio of JAK3 IC50 to HPK1 IC50; first testing facility
Listed here: items and their measured JAKs/HPK1 IC50 Ratio, B*.

The cases that follow already have their JAKs/HPK1 IC50 Ratio, B* on record.
>>> df
                              record_smiles  value_reported
0  COc1cc2c(cc1Nc1ncc(Cl)c(-c3cncc4ccccc34)n1)CN(C)CC2            >179
1  CCOC(=O)Cc1cn(-c2nc(Nc3cc4c(cc3OC)CCN(C)C4)ncc2Cl)c2ccccc12            >426

// lookup JAKs/HPK1 IC50 Ratio, B* for CCc1c[nH]c2ncc(-c3ccc(C(F)(F)F)c(P(C)(C)=O)c3)cc12
>15

The values you see were collected from patent US12612424B2.
